- target or test system: Hsp82 (Saccharomyces cerevisiae)
- experimental details: Inhibition of the ATPase activity of Hsp82 in the enzymatic coupling system (pyruvate kinase / lactate dehydrogenase)
- Type: biochemical
- assay context: ATPase activity of Hsp82, PK/LDH enzymatic coupling system, 1 μM Hsp82, 250 μM ATP, 37° C., absorbance at 340 nm; read-out: IC50
measurement label: IC50

Enquiry: Return reported IC50; argument: "Clc1nc(NCCN2CCOCC2)c2nc[nH]c2n1"
Return: 10 to 100 µM

---

- target or test system: Hsp82 (Saccharomyces cerevisiae)
- experimental details: Inhibition of the ATPase activity of Hsp82 in the enzymatic coupling system (pyruvate kinase / lactate dehydrogenase)
- Assay type: biochemical
- Text: The formation of ADP due to the ATPase activity of Hsp82 was used to develop another method for evaluating the enzymatic activity of this enzyme by application of an enzymatic coupling system involving pyruvate kinase (PK) and lactate dehydrogenase (LDH). […] In this case, the decrease in NADH concentration, measured by the decrease in absorbance at the wavelength of 340 nm, is proportional to the concentration of ADP produced by Hsp82. […]
pIC50: −log10 of the molar value.
measurement label: pIC50

Enquiry: Field: pIC50 (Hsp82 (Saccharomyces cerevisiae)). Entry: CC(Nc1nc(Cl)nc2[nH]cnc12)c1ccccc1 (racemic)
Return: 4.00 to 5.00

---

- target or test system: Hsp82 (Saccharomyces cerevisiae)
- experimental details: Inhibition of the ATPase activity of Hsp82 in the enzymatic coupling system (pyruvate kinase / lactate dehydrogenase)
- Format: biochemical
- assay context: ATPase activity of Hsp82, PK/LDH enzymatic coupling system, 1 μM Hsp82, 250 μM ATP, 37° C., absorbance at 340 nm; read-out: IC50
- Source text: The formation of ADP due to the ATPase activity of Hsp82 was used to develop another method for evaluating the enzymatic activity of this enzyme by application of an enzymatic coupling system involving pyruvate kinase (PK) and lactate dehydrogenase (LDH). […] In this case, the decrease in NADH concentration, measured by the decrease in absorbance at the wavelength of 340 nm, is proportional to the concentration of ADP produced by Hsp82. […]
pIC50: −log10 of the molar value.
measurement label: pIC50

Solved entries:
Clc1nc(OCc2ccccc2)c2nc[nH]c2n1 [Example 2, 2-chloro-6-phenylmethyloxy-1H-purine]	4.00 to 5.00
Cl.c1ccc(CN2CCN(c3ncnc4[nH]cnc34)CC2)cc1 [Example 1]	5.00 to 6.00

// next entry
Enquiry: Return reported pIC50; argument: c1csc(CNc2[nH]cnc3ncnc2-3)c1 [Example 5, 6-(thiophen-2-yl)methylamino-1H-purine]
Return: 4.00 to 5.00

---

- target or test system: Hsp82 (Saccharomyces cerevisiae, UniProt P02829)
- Sequence (P02829 whole entry): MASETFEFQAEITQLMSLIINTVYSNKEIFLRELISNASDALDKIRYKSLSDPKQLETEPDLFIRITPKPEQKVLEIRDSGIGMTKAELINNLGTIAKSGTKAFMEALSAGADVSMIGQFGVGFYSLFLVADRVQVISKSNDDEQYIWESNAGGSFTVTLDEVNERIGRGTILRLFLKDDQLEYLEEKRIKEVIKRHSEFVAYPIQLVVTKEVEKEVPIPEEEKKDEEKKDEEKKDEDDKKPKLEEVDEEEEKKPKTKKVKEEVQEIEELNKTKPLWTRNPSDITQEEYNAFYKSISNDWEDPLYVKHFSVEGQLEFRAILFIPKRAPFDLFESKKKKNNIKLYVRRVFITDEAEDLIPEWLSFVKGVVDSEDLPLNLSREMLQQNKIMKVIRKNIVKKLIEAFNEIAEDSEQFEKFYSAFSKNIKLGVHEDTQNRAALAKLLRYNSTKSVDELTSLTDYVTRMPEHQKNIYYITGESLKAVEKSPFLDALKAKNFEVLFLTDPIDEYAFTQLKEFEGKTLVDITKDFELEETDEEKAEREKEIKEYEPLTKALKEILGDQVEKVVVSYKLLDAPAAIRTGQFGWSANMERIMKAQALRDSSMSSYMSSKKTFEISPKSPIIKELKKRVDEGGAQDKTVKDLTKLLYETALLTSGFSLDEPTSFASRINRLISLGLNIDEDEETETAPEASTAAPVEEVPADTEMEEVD
- experimental details: Inhibition of the ATPase activity of Hsp82 in the enzymatic coupling system (pyruvate kinase / lactate dehydrogenase)
- Format: biochemical
- assay context: ATPase activity of Hsp82, PK/LDH enzymatic coupling system, 1 μM Hsp82, 250 μM ATP, 37° C., absorbance at 340 nm; read-out: IC50
Where a name gives a salt, the structure may show the parent alone.
IC50 values, listed per item

c1ccc(N2CCN(c3ncnc4[nH]cnc34)CC2)nc1 [Example 10, monohydrochloride]	1 to 10 µM
Clc1nc(NCCNCc2ccccc2)c2nc[nH]c2n1	10 to 100 µM
CCOC(=O)CC1CCN(c2ncnc3[nH]cnc23)CC1	10 to 100 µM

// next entry
Enquiry: Return reported IC50; argument: "c1nc(N2CCCCC2)c2nc[nH]c2n1"
Return: 1 to 10 µM
